# Assayed system: GST-tagged PIK3Cδ in complex with PIK3R1 (Homo sapiens, UniProt O00329)
# Sequence (O00329 whole entry): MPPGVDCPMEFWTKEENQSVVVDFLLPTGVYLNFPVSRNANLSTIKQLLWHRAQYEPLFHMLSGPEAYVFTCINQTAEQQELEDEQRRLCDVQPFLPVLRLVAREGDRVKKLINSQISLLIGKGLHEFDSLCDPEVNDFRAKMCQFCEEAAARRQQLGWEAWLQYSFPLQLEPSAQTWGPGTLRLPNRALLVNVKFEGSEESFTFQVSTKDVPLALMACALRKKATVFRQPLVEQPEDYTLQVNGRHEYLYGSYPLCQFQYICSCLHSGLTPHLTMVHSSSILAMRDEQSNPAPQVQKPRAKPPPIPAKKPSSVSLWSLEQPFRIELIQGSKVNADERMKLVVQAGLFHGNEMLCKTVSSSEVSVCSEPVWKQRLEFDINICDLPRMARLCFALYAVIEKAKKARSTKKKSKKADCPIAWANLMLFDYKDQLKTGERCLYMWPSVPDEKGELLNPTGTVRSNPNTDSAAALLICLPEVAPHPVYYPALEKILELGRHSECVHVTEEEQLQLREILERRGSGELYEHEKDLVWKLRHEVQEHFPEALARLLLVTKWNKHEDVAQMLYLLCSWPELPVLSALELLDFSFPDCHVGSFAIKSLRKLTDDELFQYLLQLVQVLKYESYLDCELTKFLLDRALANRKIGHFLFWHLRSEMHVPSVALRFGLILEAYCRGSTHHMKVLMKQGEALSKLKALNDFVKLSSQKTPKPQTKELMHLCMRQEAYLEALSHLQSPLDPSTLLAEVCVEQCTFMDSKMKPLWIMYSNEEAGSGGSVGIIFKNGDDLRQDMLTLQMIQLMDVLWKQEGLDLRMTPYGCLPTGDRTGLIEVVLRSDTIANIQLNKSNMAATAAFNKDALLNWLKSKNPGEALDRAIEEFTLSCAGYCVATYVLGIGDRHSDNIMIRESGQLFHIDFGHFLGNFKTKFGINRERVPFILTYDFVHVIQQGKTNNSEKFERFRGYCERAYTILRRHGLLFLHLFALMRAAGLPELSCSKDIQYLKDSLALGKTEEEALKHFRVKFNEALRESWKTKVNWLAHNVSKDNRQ
# Sequence (P27986 whole entry partner): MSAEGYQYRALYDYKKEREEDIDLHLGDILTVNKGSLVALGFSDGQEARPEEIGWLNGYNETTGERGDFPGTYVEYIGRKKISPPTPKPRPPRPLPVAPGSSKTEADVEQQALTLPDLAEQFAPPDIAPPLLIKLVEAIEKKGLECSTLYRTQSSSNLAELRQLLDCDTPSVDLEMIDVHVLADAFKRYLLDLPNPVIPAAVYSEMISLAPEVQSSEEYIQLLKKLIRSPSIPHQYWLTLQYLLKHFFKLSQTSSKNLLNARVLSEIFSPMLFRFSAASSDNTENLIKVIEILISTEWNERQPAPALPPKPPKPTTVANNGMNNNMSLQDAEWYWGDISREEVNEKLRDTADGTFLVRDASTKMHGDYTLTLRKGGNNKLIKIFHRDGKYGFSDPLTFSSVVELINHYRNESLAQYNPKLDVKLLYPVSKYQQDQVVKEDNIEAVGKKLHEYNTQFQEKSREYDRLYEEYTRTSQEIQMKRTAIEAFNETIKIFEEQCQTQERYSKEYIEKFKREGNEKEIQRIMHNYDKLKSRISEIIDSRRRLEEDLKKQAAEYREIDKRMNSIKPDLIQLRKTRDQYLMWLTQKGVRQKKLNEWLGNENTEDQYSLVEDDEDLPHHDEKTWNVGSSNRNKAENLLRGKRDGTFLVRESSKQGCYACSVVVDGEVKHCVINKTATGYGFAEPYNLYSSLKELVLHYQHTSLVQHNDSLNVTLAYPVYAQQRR
# Test protocol: PI3Kδ HTRF binding assay
# Protocol conditions: HTRF probe displacement, 1 h at rt; read-out: PIK3CD IC50
pIC50: −log10 of the molar value.
Assignment: determine reported pIC50 for the given molecules.

The examples below pair each entry with its known result.
| Molecule | Assayed system | Result type | Observed |
| --- | --- | --- | --- |
| Nc1nc2cc(-c3ccc(Cl)c(C(=O)NC[C@H](F)[C@H](O)c4ccc(F)cc4)c3F)ccn2n1 (single isomer, unassigned) [Example 299] | GST-tagged PIK3Cδ in complex with PIK3R1 (Homo sapiens, UniProt O00329) | pIC50 | 5.00 |
| [2H]C([2H])([2H])C(O)(c1ccc(F)cc1)C(F)CNC(=O)c1c(Cl)ccc(-c2ccn3nc(N)nc3c2)c1F (single isomer, unassigned) [Example 239] | GST-tagged PIK3Cδ in complex with PIK3R1 (Homo sapiens, UniProt O00329) | pIC50 | < 4.82 |
| Cc1ccc(-c2ccn3nc(N)nc3c2)c(F)c1C(=O)NCC[C@@H](O)c1ccc(Cl)cc1 [Example 152] | GST-tagged PIK3Cδ in complex with PIK3R1 (Homo sapiens, UniProt O00329) | pIC50 | < 4.82 |
| Cc1ccc(-c2ccn3nc(N)nc3c2)c(F)c1C(=O)NCC(F)(F)C(O)c1ccc(Cl)cc1 (stereo not shown) [Example 29] | GST-tagged PIK3Cδ in complex with PIK3R1 (Homo sapiens, UniProt O00329) | pIC50 | < 4.82 |
| Nc1nc2cc(-c3ccc(Cl)c(C(=O)NCC(F)(F)C(O)c4cc(F)cc(F)c4)c3F)ccn2n1 (stereo not shown) [Example 188] | GST-tagged PIK3Cδ in complex with PIK3R1 (Homo sapiens, UniProt O00329) | pIC50 | 5.03 |
| Cc1c(C(=O)NC(CF)CC(O)c2ccc(Cl)cc2)cc(-c2ccn3nc(N)nc3c2)c(F)c1F (racemic) [Example 102] | GST-tagged PIK3Cδ in complex with PIK3R1 (Homo sapiens, UniProt O00329) | pIC50 | < 4.82 |

Could you tell me pIC50 for each of these molecules? They are listed below.
1. Nc1nc2cc(-c3ccc(Cl)c(C(=O)NCC(F)(F)[C@@H](F)c4ccc(F)cc4)c3F)ccn2n1 [Example 282]
2. Cc1ccc(-c2ccn3nc(N)nc3c2)c(F)c1C(=O)NCC(F)(F)C(O)c1ccc(Cl)c(Cl)c1 (single isomer, unassigned) [Example 113]
3. Cc1c(F)cc(-c2ccn3nc(N)nc3c2)cc1C(=O)NCC(F)(F)C(O)c1ccc(F)cc1 (single isomer, unassigned) [Example 232]
4. Cc1ccc(-c2ccn3nc(N)nc3c2)c(F)c1C(=O)NCC(F)(F)C(C)(O)c1ccc(Cl)cc1 (single isomer, unassigned) [Example 221]
5. Cc1cc(F)c(-c2ccn3nc(N)nc3c2)cc1C(=O)NCCC(O)c1ccc(F)cc1 (single isomer, unassigned) [Example 9]
6. Cc1ccc(-c2ccn3nc(N)nc3c2)c(F)c1C(=O)NCC(F)(F)C(=O)c1ccc(F)cc1 [Example 281]
7. Nc1nc2cc(-c3ccc(Cl)c(C(=O)NCC(F)C(O)c4ccc(F)cc4)c3F)ccn2n1 (stereo not shown) [Example 130]

Result:
1: < 4.82; 2: < 4.82; 3: < 4.82; 4: < 4.82; 5: < 4.82; 6: < 4.82; 7: 5.31
